target or system: Rhinovirus 3C protease (RVP) serotype-14 (Human rhinovirus 14)
Construct: Recombinant Rhinovirus 3C proteases from serotypes 14, 16, 2 or 89 were prepared
Sequence (P03303 1538-1719): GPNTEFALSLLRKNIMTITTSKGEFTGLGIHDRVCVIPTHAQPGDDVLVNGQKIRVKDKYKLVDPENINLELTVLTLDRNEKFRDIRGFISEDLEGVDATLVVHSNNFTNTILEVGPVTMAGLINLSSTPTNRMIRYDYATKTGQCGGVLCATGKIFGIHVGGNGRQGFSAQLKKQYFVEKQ
method notes: Inhibition of Rhinovirus Protease, serotype 14 (FRET assay)
assay conditions: RVP serotype-14; 10 minute preincubation with 50 nM RVP prior to addition of substrate; read-out: INHIB (Ki)
parameter measured: Ki (µM)
Numbers only here, please. The scale is µM.

Examples with their reported Ki follow.
compound	units symbol	reported
CCOC(=O)/C=C/[C@H](CCC(N)=O)NC(=O)[C@H](Cc1ccc(OC)cc1)N(C)C(=O)[C@H](CC(C)C)NC(=O)OCc1ccccc1 [Compound 3]	µM	12
CCOC(=O)/C(C)=C/[C@H](CCC(N)=O)NC(=O)[C@H](Cc1ccccc1)N(C)C(=O)[C@H](CC(C)C)NC(=O)SCc1ccccc1 [Compound 16]	µM	12
CCOC(=O)/C(C)=C/[C@H](CCC(N)=O)NC(=O)[C@H](Cc1ccc(C)cc1)N(C)C(=O)[C@H](CCc1ccccc1)NC(=O)SCc1ccccc1 [Compound 14]	µM	0.8
CCOC(=O)/C=C/[C@H](CCC(N)=O)NC(=O)[C@H](Cc1ccc(OC)cc1)N(C)C(=O)[C@H](CC(C)C)NC(=O)SCC [Compound 4]	µM	2.9
CCOC(=O)/C=C/[C@H](CCC(N)=O)NC(=O)Cn1c(-c2ccccc2)ncc(NC(=O)OCc2ccccc2)c1=O [Compound 30]	µM	55
CCOC(=O)/C=C/[C@H](CCC(N)=O)NC(=O)[C@@H]1[C@@H](c2ccccc2)CCN1C(=O)[C@H](CC(C)C)NC(=O)OCc1ccccc1 [Compound 18]	µM	7
CCOC(=O)/C=C/[C@H](CCC(N)=O)NC(=O)[C@@H]1CCCN1C(=O)[C@H](CC(C)C)NC(=O)SCC [Compound 24]	µM	8
CCOC(=O)/C=C/[C@H](CCC(N)=O)NC(=O)C1CN(Cc2ccccc2)CCN1C(=O)[C@H](CC(C)C)NC(=O)OCc1ccccc1 (mixture of isomers) [Compound 28]	µM	50

Field: next compound
Query: Ki; subject: CCOC(=O)C=CC(CCC(N)=O)NC(=O)C1CC(OC(C)(C)C)CN1C(=O)C(CC(C)C)NC(=O)OCc1ccccc1 (stereo not shown) [Compound 23]
60

* * *

Consider the following compounds and their measured EC50 readings.
Tested on: ENT-70
method notes: Enterovirus-70 MRC5 Cell Culture Assay
Type: cell-based, Enterovirus strain 70
assay conditions: Enterovirus, 24 h; ENT-70 infection of MRC5 cells, XTT, one day

Examples with their reported EC50 follow.
> print(dat)
                                   compound     reported
1  CCOC(=O)/C=C/[C@H](CCC(N)=O)NC(=O)[C@H](Cc1ccccc1)N(C)C(=O)[C@H](CC(C)C)NC(=O)OCc1ccccc1       600 nM
2  Cc1cc(CCCCCOc2c(Cl)cc(C3=NCCO3)cc2Cl)on1 [WIN 54954, reference compound]  > 100000 nM
3  CCOC(=O)c1ccc(OCCC2CCN(c3ccc(C)nn3)CC2)cc1 [Pirodavir, reference compound]  > 100000 nM

Look up EC50 with ENT-70 for this compound: CCOC(=O)/C=C/[C@H](CCC(N)=O)NC(=O)[C@H](Cc1ccc(OC)cc1)N(C)C(=O)[C@H](CC(C)C)NC(=O)SCC
300 nM
